assay: NCI Yeast Anticancer Drug Screen. Data for the cln2 rad14 strain (AID 165);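 further: 0% = growth equal to vehicle treated cultures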; details: S. cerevisiae cln2 rad14 strain, at 50.0 µM, hits give high values
This is part of a sample that, as a whole, favours compounds with a hit. Of some 79,000 tested, about 15% had one in any assay.
Reported growth inhibition values are given for each entry in this list.
State the answer as a number, implicitly in %.

// below: answered molecules
| molecule | observed |
| --- | --- |
| COC(=O)C(Cc1c[nH]c2ccccc12)NP(=O)(O)OCC1OC(n2cc(Br)c(=O)[nH]c2=O)CC1O (stereo not given) | -12 |
| CC1=NN(C(=O)c2cccnc2)C(=O)C1N=Nc1ccc(S(=O)(=O)N=C(N)N)cc1 (stereo not given) | -6.5 |
| COc1ccc(CC2=NCCc3cc(OCc4ccccc4)c(OC)cc32)cc1OCc1ccccc1 | 30.6 |
| CCC(O)C(O)(c1ccccc1)c1ccccc1 (stereo not given) | -2.75 |

Turning now to a further record.
For record `O=C1ON=C2C3CC4CC12CC1(C3)C(=O)ON=C41` the listed growth inhibition is -1.9

* * *

Reported growth inhibition values are given for each entry in this list.
assay: NCI Yeast Anticancer Drug Screen. Data for the mec2-1 strain (AID 157); conditions: S. cerevisiae mec2-1 strain, at 50.0 µM, hits give high values
About 79,000 compounds went through this panel and 15% of them were active in at least one assay; those are over-represented in the sample as a whole.
State the answer as a number, implicitly in %.

// below: answered molecules
| molecule | resultUnits | growth inhibition |
| --- | --- | --- |
| CCOC(=O)C(NC(=O)OC(C)(C)C)C(=O)OCC | % | -90.8 |
| COC(=O)c1ccccc1-c1ccccc1[N+](=O)[O-] | % | -1.75 |
| COc1ccc(NC(=O)NCc2ccc(C)c(C)c2)cc1 | % | 38.8 |
| Cc1ccc(OS(=O)(=O)NC(=O)NCc2ccco2)cc1 | % | 4.9 |

For record `O=c1cccccc1Cl` the listed growth inhibition is -41.6

For record `Cn1c(N)nc2c1c(=O)[nH]c(=O)n2C` the listed growth inhibition is -0.75

For record `COc1ccc2c3c([nH]c2c1)CCN(CCCC(=O)c1ccc(F)cc1)C3` the listed growth inhibition is -4

For record COC(=O)C1C(=C(c2ccccc2)c2ccccc2)C1c1ccccc1 (centres undefined) the listed growth inhibition is -15.2

For record NC(=O)C(=O)N/N=C(\CC1(O)C(=O)Nc2ccccc21)c1ccc2ccccc2c1 (centres undefined) the listed growth inhibition is 16.5

For record `Cc1cc(C(C)C)cc(C(C)C)c1` the listed growth inhibition is -13.9

For record `O=C(O)CCc1ccccc1CC(=O)O` the listed growth inhibition is -9.95

For record `CN=CN(C)c1c2ccccc2nc2ccccc12` the listed growth inhibition is -11.3

For record N#Cc1cc([N+](=O)[O-])ccc1NC(=O)C(=O)C(C(=O)c1ccc2ccccc2c1)C1OCc2ccccc21 (centres undefined) the listed growth inhibition is -6.4

For record `CN(C)S(=O)(=O)N(C)C` the listed growth inhibition is 6.4

For record `Nc1ncnc(N)c1NC(=O)c1ccccc1` the listed growth inhibition is -19.6

For record `CN1NC(=O)SC(=O)c2ccccc2C1=O` the listed growth inhibition is 22

For record Cc1cccc2c(CC(N)C(=O)O)c[nH]c12 (centres undefined) the listed growth inhibition is -19.9

For record `C[Si](C)(OCCS(=O)(=O)O)C1S(=O)(=O)OCCOS1(=O)=O` the listed growth inhibition is -21.4

For record `Cc1cc(C)[n+](C)c(/C=C/c2ccc([N+](=O)[O-])cc2)n1` the listed growth inhibition is 6.95

For record `COC(=O)/C(C)=C1\C=C(C)CC(C)(C)C1` the listed growth inhibition is -25.1

For record `CC(=O)Nc1c(C)cc(S(=O)(=O)O)cc1C` the listed growth inhibition is -0.1

For record CC(C)CC(NC(=O)CN1C(=O)c2ccccc2C1=O)C(=O)O (centres undefined) the listed growth inhibition is -41.6

For record COC(=O)C(C(=O)C(=O)Nc1cccc(OC)c1)c1cnc2ccccc2n1 (centres undefined) the listed growth inhibition is -8.85

Attribution: PubChem BioAssay (NCI)
